Target: Endopeptidase 24.11 (Rattus norvegicus)
Construct: rat urine was collected and desalted on Sephadex G-25; from tissue; host or cells: rat urine, desalted on Sephadex G-25
Sequence (P07861 whole entry): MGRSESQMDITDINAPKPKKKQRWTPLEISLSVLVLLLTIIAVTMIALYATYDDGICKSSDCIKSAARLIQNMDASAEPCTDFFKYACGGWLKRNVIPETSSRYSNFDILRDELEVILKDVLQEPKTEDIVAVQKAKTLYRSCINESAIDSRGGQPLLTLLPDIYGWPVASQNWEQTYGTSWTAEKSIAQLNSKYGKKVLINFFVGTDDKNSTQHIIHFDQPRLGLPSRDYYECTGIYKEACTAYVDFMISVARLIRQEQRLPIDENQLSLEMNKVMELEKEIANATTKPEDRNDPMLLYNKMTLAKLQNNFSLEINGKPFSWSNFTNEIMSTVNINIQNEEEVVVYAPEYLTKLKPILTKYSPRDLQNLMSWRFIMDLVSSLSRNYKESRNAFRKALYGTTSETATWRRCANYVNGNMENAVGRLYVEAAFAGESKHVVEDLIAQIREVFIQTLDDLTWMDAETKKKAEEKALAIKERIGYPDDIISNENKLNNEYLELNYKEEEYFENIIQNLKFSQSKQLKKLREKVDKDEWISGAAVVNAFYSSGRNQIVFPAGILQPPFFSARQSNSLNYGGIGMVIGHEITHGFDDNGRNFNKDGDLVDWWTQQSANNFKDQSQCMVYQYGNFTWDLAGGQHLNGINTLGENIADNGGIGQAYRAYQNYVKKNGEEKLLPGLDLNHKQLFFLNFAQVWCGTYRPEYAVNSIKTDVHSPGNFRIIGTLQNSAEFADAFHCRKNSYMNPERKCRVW
Experiment: Inhibition of endopeptidase 24.11 (cleavage of rANP(99-126), HPLC)
Assay type: biochemical
Settings: 100 nM; read-out: % Inhibition of Metabolite Formation
Numbered stars: 1 amine (or outer) side, 2 acyl side, 3 side chain; on linkers, the order of the positions; unused ones are H or OH. Square brackets hold non-standard residues; d marks the D form. Peptide text beside a SMILES is read from it. * marks the point of attachment. X2 = O=C(Cc1ccc(N[*:1])cc1)[*:2]; X1 = O=C(C(CS)Cc1ccccc1)*
ENDPOINT NAME: inhibition at 0.1 µM (%)
Hi! Could you send only the number? It should be in %, unit omitted.

{"MOLECULE": "O=C(O)CNC(=O)C(CS)Cc1ccccc1 (stereo not shown) [Thiorphan, thiorphan, reference compound]", "inhibition at 0.1 µM [%]": 53}
{"MOLECULE": "CC[C@H](C)[C@H](NC(=O)[C@H](CCCNC(=N)N)NC(=O)[C@H](CC(=O)O)NC(=O)[C@@H](NC(=O)[C@H](CCCNC(=N)N)NC(=O)Cc1ccc(NC(=O)C(CS)Cc2ccccc2)cc1)[C@@H](C)CC)C(N)=O (stereo partly drawn) [Analog 122, MBP-4-APA--R--I--D--R--I--NH2] (X1-[X2]RIDRI-NH2)", "inhibition at 0.1 µM [%]": 25}
{"MOLECULE": "CC[C@H](C)[C@H](NC(=O)[C@H](CCCNC(=N)N)NC(=O)[C@H](CC(=O)O)NC(=O)[C@@H](NC(=O)[C@H](CCCNC(=N)N)NC(=O)CNC(=O)CNC(=O)C(CS)Cc1ccccc1)[C@@H](C)CC)C(N)=O (stereo partly drawn) [Analog 1, MBP-G-G-R-I-D-R-I-NH2] (X1-GGRIDRI-NH2)", "inhibition at 0.1 µM [%]": 23}

For CC(C)C[C@H](NP(=O)(O)O[C@@H]1O[C@@H](C)[C@H](O)[C@@H](O)[C@H]1O)C(=O)N[C@@H](Cc1c[nH]c2ccccc12)C(=O)O [Phosphoramidon, phosphoramidon, reference compound] , what is its reported inhibition at 0.1 µM?
30

---

Target: ANP clearance receptor on bovine aortic smooth muscle (BASM) cells (Bos taurus, UniProt P10730)
Construct: endogenous in cells
Sequence (P10730 42-537): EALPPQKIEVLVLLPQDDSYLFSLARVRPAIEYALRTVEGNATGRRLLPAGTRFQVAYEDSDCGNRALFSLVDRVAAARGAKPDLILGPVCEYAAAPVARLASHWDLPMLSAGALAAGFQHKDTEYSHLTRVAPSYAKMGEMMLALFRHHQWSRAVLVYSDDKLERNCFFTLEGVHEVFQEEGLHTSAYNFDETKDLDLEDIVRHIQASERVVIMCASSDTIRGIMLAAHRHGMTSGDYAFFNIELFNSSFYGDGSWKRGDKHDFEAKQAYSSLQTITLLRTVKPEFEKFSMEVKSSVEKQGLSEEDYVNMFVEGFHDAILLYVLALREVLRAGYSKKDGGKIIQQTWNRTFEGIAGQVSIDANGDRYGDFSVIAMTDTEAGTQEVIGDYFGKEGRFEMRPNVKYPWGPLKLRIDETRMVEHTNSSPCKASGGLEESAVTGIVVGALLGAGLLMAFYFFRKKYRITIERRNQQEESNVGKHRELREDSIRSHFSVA
Test: BASM receptor binding assay (competition with I125 labeled rANP(102-126))
Conditions: read-out: Ki(app)
pKi: −log10 of the molar value. Numbered stars: 1 amine (or outer) side, 2 acyl side, 3 side chain; on linkers, the order of the positions; unused ones are H or OH. Square brackets hold non-standard residues; d marks the D form. Peptide text beside a SMILES is read from it. * marks the point of attachment. X4 = O=C(NO)C(Cc1ccccc1)N(CC(=O)[*:2])[*:1]; X1 = O=C(C(CS)Cc1ccccc1)*
Returns one of condition met or condition not met; condition met when pKi is >= 8.

# count of solved cases: 3
{"COMPOUND": "CC[C@H](C)[C@H](NC(=O)[C@H](CCCNC(=N)N)NC(=O)[C@H](CC(=O)O)NC(=O)[C@@H](NC(=O)[C@H](CCCNC(=N)N)NC(=O)CNC(=O)[C@H](CC(=O)O)NC(=O)[C@H](Cc1ccccc1)NC(Cc1ccccc1)C(=O)O)[C@@H](C)CC)C(N)=O (some centres unmarked) [Analog 463]", "CLASS NAME": "condition not met"}
{"COMPOUND": "CC[C@H](C)[C@H](NC(=O)[C@H](CCCNC(=N)N)NC(=O)[C@H](CC(=O)O)NC(=O)[C@@H](NC(=O)[C@H](CCCNC(=N)N)NC(=O)CNC(=O)CNC(Cc1ccccc1)C(=O)NO)[C@@H](C)CC)C(N)=O (some centres unmarked) [Analog 702] (H-[X4]GRIDRI-NH2)", "CLASS NAME": "condition met"}
{"COMPOUND": "CC[C@H](C)[C@H](NC(=O)[C@H](CCCNC(=N)N)NC(=O)[C@H](CC(=O)O)NC(=O)[C@@H](NC(=O)[C@H](CCCNC(=N)N)NC(=O)CNC(=O)[C@@H](CC(=O)O)NC(=O)C(CS)Cc1ccccc1)[C@@H](C)CC)C(N)=O (some centres unmarked) [Analog 23] (X1-[dD]GRIDRI-NH2)", "CLASS NAME": "condition not met"}

Check if pKi >= 8 (inclusive). Item: CC[C@H](C)[C@H](NC(=O)[C@H](CCCNC(=N)N)NC(=O)[C@H](CC(=O)O)NC(=O)[C@@H](NC(=O)[C@H](CCCNC(=N)N)NC(=O)CNC(=O)CNC(=O)[C@H](Cc1ccccc1)NC(Cc1ccccc1)C(=O)O)[C@@H](C)CC)C(N)=O (some centres unmarked) [Analog 436]
condition not met
